So I've got a bunch of compounds here, and I need their IC50 values.
STUDY_TARGET: Human immunodeficiency virus type 1 reverse transcriptase (Human immunodeficiency virus 1, UniProt Q72547)
SETTINGS: read-out: IC50 (converted)
Structures can show the parent of a compound that is named as a salt.

Given the compound CC[C@@]12CCCN3CC[C@]4(c5cccc(OC)c5N(C(C)=O)[C@@H]4CC1)[C@H]32 , what is its reported IC50?
> 564 µM

Given the compound C[C@]12CCC(=O)C=C1CC[C@@H]1[C@@H]2CC[C@]2(C)C(=O)CC[C@@H]12 , what is its reported IC50?
> 698 µM

Given the compound COc1cc2c(c(OC)c1OC)-c1ccc(OC)c(=O)cc1[C@@H](NC(C)=O)CC2 , what is its reported IC50?
> 501 µM

Given the compound COC(=O)C1=CO[C@@H](C)[C@@H]2Cn3ccc4c5ccccc5nc-4c3C[C@H]12 [ALSTONINE HYDROCHLORIDE] , what is its reported IC50?
< 390 µM

Given the compound Cn1cncc1C[C@H]1COC(=O)[C@@H]1[C@@H](O)c1ccccc1 , what is its reported IC50?
> 698 µM

* * *

STUDY_TARGET: Human immunodeficiency virus type 1 reverse transcriptase (Human immunodeficiency virus 1)
PROTOCOL_DESCRIPTION: Inhibition of HIV1 RT at 200 ug/ml
So I've got a bunch of molecules here, and I need their inhibition values.

Given the molecule COc1cc2c(ccc3c4cc(OC)c(OC)cc4cnc23)cc1O , what is its reported inhibition?
< 10%

Given the molecule COc1ccc2c(c1O)-c1c(O)c(OC)cc3c1[C@H](C2)[N+](C)(C)CC3 [MAGNOFLORINE CHLORIDE] , what is its reported inhibition?
< 10%

Given the molecule C/C=C1/C[N+]2(C)CC[C@@]34c5ccccc5N[C@]32CCC1C4(CO)C(=O)OC (stereo partly drawn) [ECHITAMINE CHLORIDE] , what is its reported inhibition?
< 10%

* * *

STUDY_TARGET: Human immunodeficiency virus type 1 reverse transcriptase (Human immunodeficiency virus 1)
SETTINGS: read-out: IC50 (converted)
MEASURED_ENDPOINT: IC50

Given the compound O=c1c(O)c(-c2ccc(O)c(O)c2)oc2cc(O)cc(O)c12 , what is its reported IC50?
< 662 µM

Given the compound COc1ccc(Cc2nccc3cc(OC)c(OC)cc23)cc1OC , what is its reported IC50?
< 589 µM

Given the compound COc1c2occc2c(CC(O)C(C)(C)O)c2ccc(=O)oc12 (stereo unspecified) , what is its reported IC50?
> 628 µM

Given the compound COc1cc(O)c2c(=O)cc(-c3ccc(O)cc3)oc2c1 , what is its reported IC50?
> 704 µM

Given the compound CNC[C@H](O)c1cccc(O)c1 , what is its reported IC50?
> 1200 µM

Given the compound COC(=O)C1=CO[C@@H](O[C@@H]2O[C@H](CO)[C@@H](O)[C@H](O)[C@H]2O)[C@H]2[C@@H]1C=C[C@@]21C=C([C@H](C)O)C(=O)O1 [PLUMIERIDE] , what is its reported IC50?
> 425 µM

* * *

STUDY_TARGET: Human immunodeficiency virus type 1 reverse transcriptase (Human immunodeficiency virus 1, UniProt Q72547)
SETTINGS: read-out: IC50 (converted)
MEASURED_ENDPOINT: IC50

Given the compound C/C=C1/CN2[C@H]3C[C@@H]1[C@@H](CO)[C@@H]2Cc1c3[nH]c2ccc(OC)cc12 , what is its reported IC50?
> 616 µM

Given the compound C/C=C1/C=[N+]2[C@H]3C[C@H]1[C@H](C(=O)OC)[C@@H]2Cc1c3[nH]c2ccc(O)cc12 , what is its reported IC50?
> 593 µM

Given the compound CC[C@@]12CCCN3CC[C@@]4(C(=Nc5c(OC)cccc54)CC1)[C@H]32 , what is its reported IC50?
> 644 µM
